Assay: Approximate solubility of Compound B Form B material in 20 solvents at RT
Assay type: physicochemical
Details: organic solvent or mixture, thermodynamic from solid, MTBE
Counter-ions that a name gives are not always drawn.
Parameter: solubility

Query: Indicate the recorded solubility value for this compound: C[C@@H]1Cc2c([nH]c3ccccc23)[C@@H](c2c(F)cc(NC3CN(CCCF)C3)cc2F)N1CC(F)(F)CO [Compound B, tartrate]
Reply: < 2100 µg/mL

---

Assay: Approximate solubility of freebase Compound A in 16 solvents at RT
Format: physicochemical
Details: organic solvent or mixture, Iso-butanol
Parameter: solubility

Query: Please give the documented solubility of C[C@@H]1Cc2c([nH]c3ccccc23)[C@@H](c2c(F)cc(NC3CN(CCCF)C3)cc2F)N1CC(F)(F)CO [Compound A]
Reply: > 40 mg/mL
